Listing: neutralization IC50, Vero cells of selected binders
- targetOfAssay: ZIKV envelope glycoprotein (E) of strain MR766 (Uganda 1947) (Zika virus, UniProt Q32ZE1 291-790)
- Sequence (Q32ZE1 291-790 limits assumed): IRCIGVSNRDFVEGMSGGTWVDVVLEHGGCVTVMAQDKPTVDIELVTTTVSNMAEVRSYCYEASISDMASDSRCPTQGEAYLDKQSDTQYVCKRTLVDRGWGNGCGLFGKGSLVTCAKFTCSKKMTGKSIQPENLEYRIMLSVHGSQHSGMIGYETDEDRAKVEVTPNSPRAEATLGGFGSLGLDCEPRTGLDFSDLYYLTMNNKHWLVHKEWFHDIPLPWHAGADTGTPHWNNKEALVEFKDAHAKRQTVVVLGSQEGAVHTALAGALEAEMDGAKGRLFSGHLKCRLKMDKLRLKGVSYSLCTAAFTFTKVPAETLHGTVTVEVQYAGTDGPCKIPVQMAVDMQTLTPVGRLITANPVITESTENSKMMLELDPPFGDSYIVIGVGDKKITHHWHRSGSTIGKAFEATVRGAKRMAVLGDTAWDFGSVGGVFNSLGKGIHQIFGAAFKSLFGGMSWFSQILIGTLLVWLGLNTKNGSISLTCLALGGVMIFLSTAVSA
- assayName: cell-based or functional assay
Express it in pM; write the number only.

Sample answers from the record:
{"binder": "H4H25640P (antibody, V domains shown) VH: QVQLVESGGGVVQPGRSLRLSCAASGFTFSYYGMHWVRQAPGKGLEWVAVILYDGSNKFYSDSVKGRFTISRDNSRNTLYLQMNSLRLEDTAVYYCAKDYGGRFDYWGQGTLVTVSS VL: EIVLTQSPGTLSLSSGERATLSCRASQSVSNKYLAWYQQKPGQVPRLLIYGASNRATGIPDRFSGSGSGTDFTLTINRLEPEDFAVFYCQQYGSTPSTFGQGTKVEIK", "u": "pM", "neutralization IC50, Vero cells": 27.9}
{"binder": "H4H25704N (antibody, V domains shown) VH: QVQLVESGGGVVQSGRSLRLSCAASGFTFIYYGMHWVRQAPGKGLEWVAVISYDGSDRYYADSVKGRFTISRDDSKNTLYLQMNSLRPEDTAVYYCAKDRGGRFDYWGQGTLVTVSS VL: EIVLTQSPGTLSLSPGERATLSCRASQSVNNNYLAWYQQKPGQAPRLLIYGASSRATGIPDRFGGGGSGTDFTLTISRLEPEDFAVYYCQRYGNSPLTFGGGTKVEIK", "u": "pM", "neutralization IC50, Vero cells": 46}

Entry H4H25592P (antibody, V domains shown) VH: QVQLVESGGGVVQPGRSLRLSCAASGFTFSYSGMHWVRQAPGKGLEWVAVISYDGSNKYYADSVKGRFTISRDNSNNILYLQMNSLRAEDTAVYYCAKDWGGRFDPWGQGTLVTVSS VL: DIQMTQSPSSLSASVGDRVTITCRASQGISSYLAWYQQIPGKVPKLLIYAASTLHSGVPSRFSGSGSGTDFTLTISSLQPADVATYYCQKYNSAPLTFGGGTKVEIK , neutralization IC50, Vero cells reported as 42.6
